System: B. amphitrite
test_details: Larval settlement (antifouling) assay with cyprids of the barnacle B. amphitrite
Format: in vivo, Balanus amphitrite
condition_notes: Amphibalanus amphitrite; cyprids, 24-well plates, 25 °C, 48 h; average of triplicate ± SD; highest concentration 25 μg/mL; read-out: EC50 (μg/mL), inhibition of settlement of B. amphitrite

- molecule: "CC1CC(O)C23C(C)C(C(=O)O)=CC2(C)CCC13 (stereo not shown)"
  subject_of_test: "B. amphitrite"
  cmp: ">"
  EC50 (µg/mL): 25
- molecule: "COC(=O)C1=CC2(C)CCC3C(C)CC(O)C32C1C (stereo not shown)"
  subject_of_test: "B. amphitrite"
  cmp: "="
  EC50 (µg/mL): 10
- molecule: "CC1CC(=O)C23C1CCC2(C)C1OC1(C(=O)O)C3C (stereo not shown)"
  subject_of_test: "B. amphitrite"
  cmp: ">"
  EC50 (µg/mL): 25
- molecule: "COC(=O)C1=CC2(C)CCC3C(C)CC(=O)C32C1C (stereo not shown)"
  subject_of_test: "B. amphitrite"
  cmp: "="
  EC50 (µg/mL): 3.16
